# Tested on: KM12 colon
# protocol notes: NCI tumour cell line growth inhibition, 48 h
property: GI50

>>> df
                                smiles_data  property  endpoint_value
0                CCOC(=O)Nc1nc2ccc(OC)cc2s1      GI50        > 100 µM
1           OCc1ccc(N2CCc3cccc(F)c3C2)cc1Cl      GI50         15.7 µM
2  O=S(=O)(NC1=NCCN1C(=S)SN1CCn2c1nsc2=S)c1cccc2ccccc12      GI50         17.3 µM
3  COc1ccc(/C=C/C(=O)/C=C/c2cc3ccccc3[nH]c2=O)cc1      GI50         2.62 µM
4   O=C(O)c1ccc(NCn2nc(-c3ccccc3O)oc2=S)cc1      GI50        > 100 µM
